biological target: MMP-9 (Homo sapiens, UniProt P14780); test: Inhibition of human matrix metalloproteases; type: biochemical; details: inhibitor 1.0 μM; read-out: percentage of MMP-9 activity remaining
Sequence (P14780 94-707): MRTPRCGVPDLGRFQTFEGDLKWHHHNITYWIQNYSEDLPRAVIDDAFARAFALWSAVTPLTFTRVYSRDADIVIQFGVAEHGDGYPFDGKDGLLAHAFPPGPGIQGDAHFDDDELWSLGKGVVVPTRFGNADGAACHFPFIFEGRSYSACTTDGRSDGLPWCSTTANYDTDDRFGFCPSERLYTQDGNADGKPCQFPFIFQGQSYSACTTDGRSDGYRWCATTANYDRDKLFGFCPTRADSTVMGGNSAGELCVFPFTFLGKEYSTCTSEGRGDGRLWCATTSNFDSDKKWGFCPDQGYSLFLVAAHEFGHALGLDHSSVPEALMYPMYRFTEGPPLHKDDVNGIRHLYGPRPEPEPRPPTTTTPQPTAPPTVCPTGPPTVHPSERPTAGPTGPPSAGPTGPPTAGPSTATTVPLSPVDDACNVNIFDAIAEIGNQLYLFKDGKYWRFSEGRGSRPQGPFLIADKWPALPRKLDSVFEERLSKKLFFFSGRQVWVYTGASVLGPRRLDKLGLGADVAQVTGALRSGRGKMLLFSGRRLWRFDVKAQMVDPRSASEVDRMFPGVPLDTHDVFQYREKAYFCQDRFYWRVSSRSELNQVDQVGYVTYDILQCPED
Let's look at some compounds and their measured remaining activity at 1 µM.
Response body: numeric value in %, unit text excluded.

NCCCC[C@@H]1NC(=O)[C@@H](CN(O)C=O)CCCCCCCCCCCCCCNC1=O :: 96

Data request: Please indicate remaining activity at 1 µM recorded for CCCC[C@H](CN(O)C=O)C(=O)N[C@@H](CCCCN)C(=O)Nc1ccccc1 [Compound 10C, reference compound]
Data returned: 46

Data request: Please report remaining activity at 1 µM for the following compound: CC(C)(C)[C@@H]1NC(=O)[C@@H](CN(O)C=O)CCCCCCCNC1=O
Data returned: 92

Data request: Please give the documented remaining activity at 1 µM of CC(C)(C)C1NC(=O)C(CN(O)C=O)CCCCCCCCCNC1=O (stereo not shown)
Data returned: 95
